# System: CCRIS mutagenicity, Ames/micronucleus/aberration tests
# method_summary: CCRIS mutagenicity studies
# experimental_setup: Test System: Ames Salmonella typhimurium; Strain/Indicator: TA102; Metabolic Activation: None; Method: Preincubation
Calls of active or inactive are those of the source. How the calls were made is not given here.
measured_quantity: mutagenic call

Oc1ccc(/C=C/c2cc(O)cc(O)c2)cc1: inactive; negative
C1=C\CC/C=C\CC/1.C1=C\CC/C=C\CC/1.[Ni]: inactive; negative
O=C(/C=C/c1ccc(O)cc1)c1ccc(O)cc1O: inactive; negative

###

# System: CCRIS mutagenicity, Ames/micronucleus/aberration tests
# method_summary: CCRIS mutagenicity studies
# experimental_setup: Test System: AMES SALMONELLA TYPHIMURIUM; Strain/Indicator: TA1538; Metabolic Activation: NONE; Method: STANDARD PLATE
Calls of active or inactive are those of the source. How the calls were made is not given here.
The reply should name one outcome from YES = active, NO = inactive

Some solved entries appear below for comparison.
CC1(C)COC1=O: NO
OCCCc1ccccc1: NO
Nc1ccc(-c2ccc(-c3ccc(-c4ccc(N)cc4)cc3)cc2)cc1: NO
O=C1c2cccc(S(=O)(=O)O)c2C(=O)c2cccc([N+](=O)[O-])c21: YES
CC(O)CN(C)c1ccc(NN)nn1 (stereo not drawn): YES
Cc1ccc(N)cc1Cl: NO
CCN(CC)c1ccc(-c2ccc(-c3ccc(-c4ccc(N(CC)CC)cc4)cc3)cc2)cc1: NO
NC(=Nc1ccccc1)Nc1ccccc1: NO

(Q) Any idea what this test logged for "CCN(CC)c1ccc(-c2ccccc2)c(-c2ccccc2)c1N(CC)CC" ?
(A) YES

(Q) Any idea what this test logged for "O=[N+]([O-])c1ccc(N=Nc2ccc(N(CCO)CCO)cc2)c([N+](=O)[O-])c1" ?
(A) YES

(Q) Any idea what this test logged for "CC(=O)C1(c2ccccc2)CCNCC1" ?
(A) NO

(Q) Any idea what this test logged for "FC(F)(F)c1cccc(Cl)c1" ?
(A) NO

(Q) Any idea what this test logged for CCN(CC)C(=O)Nc1ccc(OCC(O)CNC(C)(C)C)c(C(C)=O)c1 (stereo not drawn) ?
(A) NO
